Reference for the values: a melting point compilation (Tetko et al.; mined from patent text by program, amines drawn as free bases though some values may be those of a salt)

Quick reference for melting point among some molecules
measured_attribute: melting point

CCOC(=O)/C=C/C=C/c1ccc(CCc2nc(-c3ccccc3)oc2C)cc1
82 to 83 °C
Cc1cccc(-c2n[nH]cc2-c2ccc(F)c(-c3cn4c(n3)S(=O)(=O)CC4)c2)n1
134 to 138 °C
Nc1ccc(S(=O)c2ccc(-c3ccc(Br)cc3)cc2)cc1[N+](=O)[O-] (stereo not given)
218 to 220 °C
Nc1ccc(C(=O)c2ncco2)c(Cl)c1
92 to 94 °C
Cc1c(Cl)c(Cl)c(SC(F)(F)F)c(Cl)c1Cl
49.5 to 50.5 °C

* * *

measured_attribute: melting point

CCOc1cccc(-c2ccnc(Nc3cccc(OC(F)(F)C(F)F)c3)n2)c1
88 to 96 °C
CN1CC(c2ccc(Cl)cc2)=NN(c2ccc(Cl)cc2)C1=O
174 to 176 °C
O=C(O)c1csc(-c2ccc(Cl)cc2)n1
189 to 190 °C
CC(COC(=O)C(=O)Nc1nc(-c2ccccc2)cs1)c1ccccc1 (stereo not given)
140 to 141 °C
CCCCCCCCCCOc1cc(C(=O)O)c(OCCCCCCCCCC)cc1C(=O)O
136 to 137 °C
CC(=O)Nc1snc(C)c1[N+](=O)[O-]
210 °C
COC(=O)COc1ccc(C(=O)NN(C)C(=O)c2ccc(C(N)=S)cc2)cc1
169 to 170 °C
CCOC(=O)Cc1csc(N=C2SC[C@@H]3Cc4ccccc4CN23)n1
105 °C
Cc1cc(-n2ccnc2)c2cccc(OCc3c(Cl)ccc(S(=O)(=O)N4CCC[C@H]4C(=O)NCCCNC(=O)c4ccc(C=NN)cc4)c3Cl)c2n1
148 °C
Cc1c(C(=O)O)oc2ccc(OCCNC[C@@H](O)c3csc(C(F)(F)F)n3)cc12
128 to 131 °C
Nc1ccc(-c2noc(-c3cnn4c(C(F)F)cc(-c5ccc(Cl)c(Cl)c5)nc34)n2)cn1
279 °C
COc1cccc(C=O)c1OCc1ccccc1
41 to 43 °C
Cn1c(N)c(CN2CCN(c3cccc4c3OCCO4)CC2)c(=O)n1-c1ccccc1
222 to 224 °C
CC(C)(C)OC(=O)N1C2CCC1CN(Cc1ccccc1)C2
58 to 60 °C
O=C(Nc1ccccc1O)C(F)(F)C(O)(Cn1cncn1)c1ccc(F)cc1F (stereo not given)
121 to 126 °C
CS(=O)(=O)Nc1ccnn1-c1ncc(Cl)cc1Cl
52 to 54 °C
CC(=O)OCC(=O)C1C(C)CC2C3CC(Cl)C4=CC(=O)C=CC4(C)C3C(O)CC21C (stereo not given)
208 °C
O=C1Nc2ccc(Br)cc2C1c1ncnc2c1cnn2C1CCCC1 (stereo not given)
287 to 290 °C
Cn1cc(OS(C)(=O)=O)c(=O)c2ccc(OCC(F)(F)F)cc21
110 to 112 °C
CC1(C)CC(=O)C(C(=O)Nc2ccc(C(F)(F)F)cc2)C(=O)O1 (stereo not given)
176 °C
